test system: 885512-296-R-J2-PDC complex spheroid viability; test: Anticancer human tumor 885512-296-R-J2-PDC patient-derived breast carcinoma cell line growth inhibition; settings: second compound 0.316 µM; first compound 0.001 µM; active means viability on the fitted dose curve at most 10% of control; inactive means the rest;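 further: spheroids exposed to agents for 7 days before viability read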
Entry note: the call must match one of active, inactive

                                   molecule  qualitative_label
0  CC[C@@]1(O)C(=O)OCc2c1cc1n(c2=O)Cc2cc3c(CN(C)C)c(O)ccc3nc2-1 + NC1CC1c1ccc(-c2cccc(O)c2)cc1           inactive
1  CC(C)CC(NC(=O)C(Cc1ccccc1)NC(=O)c1cnccn1)B(O)O (centres undefined) + NC1CC1c1ccc(-c2cccc(O)c2)cc1             active
2  CC(C)CC(NC(=O)C(Cc1ccccc1)NC(=O)c1cnccn1)B(O)O (centres undefined) + NC1CCC(NC2CC2c2ccccc2)CC1           inactive

Assay result, entry CC[C@@]1(O)C(=O)OCc2c1cc1n(c2=O)Cc2cc3c(CN(C)C)c(O)ccc3nc2-1 + NC1CCC(NC2CC2c2ccccc2)CC1 — outcome? inactive

Recorded values, source PubChem BioAssay AID1918946.
